Biological target: PI3K-δ (PI3K(p1108/p857) (h)) (Homo sapiens, UniProt O00329)
Sequence (O00329 whole entry): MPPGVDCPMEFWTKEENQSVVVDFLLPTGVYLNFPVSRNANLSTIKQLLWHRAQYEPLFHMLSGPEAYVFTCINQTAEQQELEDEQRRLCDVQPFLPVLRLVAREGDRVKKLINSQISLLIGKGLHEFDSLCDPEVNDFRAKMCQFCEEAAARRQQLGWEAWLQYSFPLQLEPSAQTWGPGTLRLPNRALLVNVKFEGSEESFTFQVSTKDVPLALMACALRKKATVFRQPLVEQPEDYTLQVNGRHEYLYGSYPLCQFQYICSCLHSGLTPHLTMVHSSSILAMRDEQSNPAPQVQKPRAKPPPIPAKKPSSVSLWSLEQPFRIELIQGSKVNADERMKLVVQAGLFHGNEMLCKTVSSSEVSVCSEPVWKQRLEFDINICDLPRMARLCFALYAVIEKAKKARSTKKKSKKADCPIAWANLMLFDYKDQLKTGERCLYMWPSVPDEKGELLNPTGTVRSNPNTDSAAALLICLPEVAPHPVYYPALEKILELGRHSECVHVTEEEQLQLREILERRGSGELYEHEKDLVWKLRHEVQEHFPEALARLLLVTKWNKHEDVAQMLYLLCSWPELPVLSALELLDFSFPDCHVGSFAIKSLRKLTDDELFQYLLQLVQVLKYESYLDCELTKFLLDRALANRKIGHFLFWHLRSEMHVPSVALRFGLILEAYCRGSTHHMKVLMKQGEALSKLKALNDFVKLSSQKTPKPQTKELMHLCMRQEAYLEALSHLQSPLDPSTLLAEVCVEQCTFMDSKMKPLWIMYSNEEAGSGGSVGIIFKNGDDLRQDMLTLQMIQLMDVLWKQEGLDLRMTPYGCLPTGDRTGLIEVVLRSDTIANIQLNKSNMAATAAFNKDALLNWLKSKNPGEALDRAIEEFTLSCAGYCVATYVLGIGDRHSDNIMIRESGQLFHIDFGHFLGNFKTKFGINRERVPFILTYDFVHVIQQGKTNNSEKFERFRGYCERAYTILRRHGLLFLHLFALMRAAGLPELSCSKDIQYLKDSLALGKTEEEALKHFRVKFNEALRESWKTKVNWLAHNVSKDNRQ
Sequence (P27986 whole entry partner): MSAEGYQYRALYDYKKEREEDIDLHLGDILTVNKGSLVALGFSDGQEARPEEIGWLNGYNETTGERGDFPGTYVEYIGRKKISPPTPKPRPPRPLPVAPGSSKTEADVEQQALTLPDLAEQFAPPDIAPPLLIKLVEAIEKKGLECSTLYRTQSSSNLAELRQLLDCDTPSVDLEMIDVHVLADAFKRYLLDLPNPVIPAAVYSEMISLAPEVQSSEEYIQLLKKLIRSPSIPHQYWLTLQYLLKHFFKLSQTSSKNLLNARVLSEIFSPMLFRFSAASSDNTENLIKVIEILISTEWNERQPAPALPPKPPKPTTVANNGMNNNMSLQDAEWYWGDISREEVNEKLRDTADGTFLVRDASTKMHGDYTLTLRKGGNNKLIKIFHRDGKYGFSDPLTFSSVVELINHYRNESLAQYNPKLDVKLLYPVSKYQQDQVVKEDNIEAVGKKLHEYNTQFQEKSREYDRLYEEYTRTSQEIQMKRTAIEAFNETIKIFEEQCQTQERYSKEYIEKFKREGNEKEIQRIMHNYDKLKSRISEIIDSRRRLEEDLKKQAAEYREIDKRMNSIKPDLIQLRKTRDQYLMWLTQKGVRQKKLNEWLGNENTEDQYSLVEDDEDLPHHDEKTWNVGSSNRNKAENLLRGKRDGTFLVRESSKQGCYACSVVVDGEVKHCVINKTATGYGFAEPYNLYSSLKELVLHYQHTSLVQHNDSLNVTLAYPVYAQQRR
Assay: Evaluation of inhibitory activity against PI3K-δ (HTRF kinase assay)
Assay type: biochemical
Conditions: compound concentration 0.01 μM; read-out: EXP_VALUE(% Inhibition) PI3K-δ 0.01 μM
Label true (1) when inhibition at 0.01 µM is at or above 70%; otherwise label false (0).

Before answering, review these 3 worked examples.
C[C@H](Nc1ncnc2[nH]ccc(=O)c12)c1c(Cl)c2cccc(C#Cc3ccccn3)c2c(=O)n1-c1ccccc1 [Example 308]; false (0)
C[C@H](Nc1ncnc2[nH]ccc(=O)c12)c1c(Cl)c2cccc(-c3ccc4nncn4c3)c2c(=O)n1-c1ccccc1 [Example 37]; true (1)
COc1cc(OC(F)(F)F)cc(-c2cccc3c(Cl)c([C@H](C)Nc4ncnc5[nH]ccc(=O)c45)n(-c4ccccc4)c(=O)c23)c1 [Example 158]; false (0)

Hi team, for COc1ncc(-c2cccc3c(Cl)c([C@H](C)Nc4ncnc5[nH]ccc(=O)c45)n(-c4ccccc4)c(=O)c23)cc1[N+](=O)[O-] [Example 61] , is the recorded inhibition at 0.01 µM at or above 70%? true (1)

* * *

Molecular target: PI3K-δ (PI3K(p1108/p857) (h)) (Homo sapiens, UniProt O00329)
Assay: Evaluation of inhibitory activity against PI3K-δ (HTRF kinase assay)
Assay type: biochemical
Conditions: compound concentration 0.01 μM; read-out: EXP_VALUE(% Inhibition) PI3K-δ 0.01 μM
inhibition at 0.01 µM reference
// return numeric value only (unit: %, not printed)

Use the examples below as a reference point.
CON=C(C)c1cccc2c(Cl)c([C@H](C)Nc3ncnc4[nH]ccc(=O)c34)n(-c3ccccc3)c(=O)c12 (stereo in doubt); 63
C[C@H](Nc1ncnc2[nH]ccc(=O)c12)c1c(Cl)c2cccc(N3CCOCC3)c2c(=O)n1-c1ccccc1; 65

Now examine the next entry.
Find the recorded inhibition at 0.01 µM belonging to "COc1cc(-c2cccc3c(Cl)c([C@H](C)Nc4ncnc5[nH]ccc(=O)c45)n(-c4ccccc4)c(=O)c23)ccc1Cl" and report it. 83

* * *

inhibition at 0.01 µM reference
Target: DNA-PK(h) (Homo sapiens)
Test: Evaluation of inhibitory activity against DNA-PK (HTRF kinase assay, GST-cMyc-p53 substrate)
Type: biochemical
Conditions: compound concentration 0.01 μM; read-out: EXP_VALUE(% Inhibition) DNA-PK(h) 0.01 μM
// return numeric value only (unit: %, not printed)

Provide value of inhibition at 0.01 µM for this record tested with DNA-PK(h) (Homo sapiens): "C[C@H](Nc1ncnc2[nH]ccc(=O)c12)c1c(Cl)c2cccc(-c3ccc(F)cc3)c2c(=O)n1-c1ccccc1" 44

Again, but for "CCCSc1ccc(-c2cccc3c(Cl)c([C@H](C)Nc4ncnc5[nH]ccc(=O)c45)n(-c4ccccc4)c(=O)c23)cc1" 23

Again, but for "C[C@H](Nc1ncnc2[nH]ccc(=O)c12)c1c(Cl)c2cccc(-c3cnn(C4CC4)c3)c2c(=O)n1-c1ccccc1" 78

Again, but for "C[C@H](Nc1ncnc2[nH]ccc(=O)c12)c1c(Cl)c2cccc(-c3cc[nH]n3)c2c(=O)n1-c1ccccc1" 56

* * *

Target: PI3K-δ (PI3K(p1108/p857) (h)) (Homo sapiens)
Experiment: Evaluation of inhibitory activity against PI3K-δ (HTRF kinase assay)
Format: biochemical
Conditions: compound concentration 0.01 μM; read-out: EXP_VALUE(% Inhibition) PI3K-δ 0.01 μM
Label met when inhibition at 0.01 µM is at or above 60%; otherwise label not met.

Before answering, review these 4 worked examples.
C[C@H](Nc1ncnc2[nH]ccc(=O)c12)c1c(Cl)c2cccc(-c3cnc(N4CCN(C)CC4)cn3)c2c(=O)n1-c1ccccc1 [Example 211]; met
C[C@H](Nc1ncnc2[nH]ccc(=O)c12)c1c(Cl)c2cccc(N3CCN(C4CCN(C)CC4)CC3)c2c(=O)n1-c1ccccc1 [Example 11]; not met
C[C@H](Nc1ncnc2[nH]ccc(=O)c12)c1c(Cl)c2cccc(N3CCN(c4ccncc4)CC3)c2c(=O)n1-c1ccccc1 [Example 9]; not met
C[C@H](Nc1ncnc2[nH]ccc(=O)c12)c1c(Cl)c2cccc(-c3nc(N)nc(N)n3)c2c(=O)n1-c1ccccc1 [Example 293]; not met

Hi team, for C[C@H](Nc1ncnc2[nH]ccc(=O)c12)c1c(Cl)c2cccc(-c3cc4ccccc4o3)c2c(=O)n1-c1ccccc1 [Example 6] , is the recorded inhibition at 0.01 µM at or above 60%? met
